# tgt: hLPAR1 (human lysophosphatidic acid receptor 1) (Homo sapiens, UniProt Q92633)
# Sequence (Q92633 whole entry): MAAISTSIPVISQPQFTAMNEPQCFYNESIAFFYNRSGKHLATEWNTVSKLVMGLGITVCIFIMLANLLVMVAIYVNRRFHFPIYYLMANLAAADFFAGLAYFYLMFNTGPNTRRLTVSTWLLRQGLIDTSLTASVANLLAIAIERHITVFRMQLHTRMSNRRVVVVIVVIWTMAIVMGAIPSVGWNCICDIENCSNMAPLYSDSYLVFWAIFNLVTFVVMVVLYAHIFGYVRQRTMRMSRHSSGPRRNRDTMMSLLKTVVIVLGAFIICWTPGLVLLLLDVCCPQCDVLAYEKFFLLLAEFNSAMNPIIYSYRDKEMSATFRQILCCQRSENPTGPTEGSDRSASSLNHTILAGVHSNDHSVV
# experiment summary: FLIPR antagonist property test: LPA-induced intracellular calcium elevation in CHO-K1/LPA1R cells
# condition parameters: hLPAR1 expressed in CHO-K1 cells, LPA at EC80, read-out: LPAR1 IC50
metric: pIC50
Give bare numbers, as −log10 of the molar value.

Indicate the recorded pIC50 value for this molecule: COCc1ccnc(OCc2c(-c3ccc(O[C@H]4C[C@@H]5CC[C@H](C(=O)O)[C@@H]5C4)c(C)n3)nnn2C)n1 [Compound 1-P1] 8.06
